Exercise: state measured Transfection efficiency for each of the molecules provided.
System: COS-7
testDetails: Transfection efficiency when the compound/DNA charge ratio was 5:1
Assay type: functional, Cercopithecidae

[[record]]
molecule = "CC(C)CCCC(C)[C@H]1CC[C@H]2C3CC=C4C[C@@H](OC(=O)C[N+](C)(C)CCO)CCC4(C)[C@H]3CCC12C (stereo not given in full)"
resultvalue = "18500 RLU (ug of protein)-1"


Can you give me Transfection efficiency for all of these, one by one?
1. CC(C)CCCC(C)[C@H]1CC[C@H]2C3CC=C4C[C@@H](OC(=O)OCCN(C)C)CCC4(C)[C@H]3CCC12C (stereo not given in full)
2. CC(C)CCCC(C)[C@H]1CC[C@H]2C3CC=C4C[C@@H](OC(=O)OCC[N+](C)(C)CCO)CCC4(C)[C@H]3CCC12C (stereo not given in full)
3. CC(C)CCCC(C)[C@H]1CC[C@H]2C3CC=C4C[C@@H](OC(=O)OCC[N+](C)(C)C)CCC4(C)[C@H]3CCC12C (stereo not given in full)
4. CCCCCCCCCCCCCCOCC(COC(=O)C[N+](C)(C)C)OCCCCCCCCCCCCCC (stereo not given)

1. 76600 RLU (ug of protein)-1
2. 25500 RLU (ug of protein)-1
3. 77200 RLU (ug of protein)-1
4. 10000 RLU (ug of protein)-1

* * *

Tested on: COS-7
testDetails: Transfection efficiency when the compound/DNA charge ratio was 5:1
Assay type: functional, Cercopithecidae
Exercise: state measured Transfection efficiency for each of the molecules provided.

Example cases with answers are listed next.
[[record]]
molecule = "CC(C)CCCC(C)[C@H]1CC[C@H]2C3CC=C4C[C@@H](OC(=O)CCC(=O)NCCN(C)C)CCC4(C)[C@H]3CCC12C (some centres not stated)"
resultvalue = "94100 RLU (ug of protein)-1"

[[record]]
molecule = "CC(C)CCCC(C)[C@H]1CC[C@H]2C3CC=C4C[C@@H](OC(=O)CN(C)C)CCC4(C)[C@H]3CCC12C (some centres not stated)"
resultvalue = "1500 RLU (ug of protein)-1"

[[record]]
molecule = "CC(C)CCCC(C)[C@H]1CC[C@H]2C3CC=C4C[C@@H](OC(=O)C[N+](C)(C)C)CCC4(C)[C@H]3CCC12C (some centres not stated)"
resultvalue = "20100 RLU (ug of protein)-1"

[[record]]
molecule = "CC(C)CCCC(C)[C@H]1CC[C@H]2C3CC=C4C[C@@H](OC(=O)CCC(=O)OCCCN(C)C)CCC4(C)[C@H]3CCC12C (some centres not stated)"
resultvalue = "9200 RLU (ug of protein)-1"

[[record]]
molecule = "CC(C)CCCC(C)[C@H]1CC[C@H]2C3CC=C4C[C@@H](OC(=O)CCC(=O)NCCCN(C)C)CCC4(C)[C@H]3CCC12C (some centres not stated)"
resultvalue = "22500 RLU (ug of protein)-1"

[[record]]
molecule = "CC(C)CCCC(C)[C@H]1CC[C@H]2C3CC=C4C[C@@H](OC(=O)CCC(=O)OCCN(C)C)CCC4(C)[C@H]3CCC12C (some centres not stated)"
resultvalue = "12200 RLU (ug of protein)-1"


Sample CCCCCCCCCCCCCCOCC(COC(=O)CN(C)C)OCCCCCCCCCCCCCC (configuration not stated) — what was its Transfection efficiency?
5500 RLU (ug of protein)-1

* * *

Test system: COS-7
testDetails: Transfection efficiency when the compound/DNA charge ratio was 11:1
Format: functional, Cercopithecidae
Exercise: state measured Transfection efficiency for each of the compounds provided.

Example cases with answers are listed next.
[[record]]
compound = "CC(C)CCCC(C)[C@H]1CC[C@H]2C3CC=C4C[C@@H](OC(=O)OCC[N+](C)(C)CCO)CCC4(C)[C@H]3CCC12C (some centres not stated)"
resultvalue = "8100 RLU (ug of protein)-1"

[[record]]
compound = "CC(C)CCCC(C)[C@H]1CC[C@H]2C3CC=C4C[C@@H](OC(=O)OCC[N+](C)(C)C)CCC4(C)[C@H]3CCC12C (some centres not stated)"
resultvalue = "3600 RLU (ug of protein)-1"

[[record]]
compound = "CCCCCCCCCCCCCCOCC(COC(=O)CN(C)C)OCCCCCCCCCCCCCC (configuration not stated)"
resultvalue = "1000 RLU (ug of protein)-1"

[[record]]
compound = "CCCCCCCCCCCCCCOCC(COC(=O)C[N+](C)(C)C)OCCCCCCCCCCCCCC (configuration not stated)"
resultvalue = "18700 RLU (ug of protein)-1"

[[record]]
compound = "CC(C)CCCC(C)[C@H]1CC[C@H]2C3CC=C4C[C@@H](OC(=O)OCCN(C)C)CCC4(C)[C@H]3CCC12C (some centres not stated)"
resultvalue = "15200 RLU (ug of protein)-1"


Can you give me Transfection efficiency for all of these, one by one?
1. CC(C)CCCC(C)[C@H]1CC[C@H]2C3CC=C4C[C@@H](OC(=O)CN(C)C)CCC4(C)[C@H]3CCC12C (some centres not stated)
2. CC(C)CCCC(C)[C@H]1CC[C@H]2C3CC=C4C[C@@H](OC(=O)CCC(=O)OCCCN(C)C)CCC4(C)[C@H]3CCC12C (some centres not stated)

["3100 RLU (ug of protein)-1", "6000 RLU (ug of protein)-1"]

Can you give me Transfection efficiency for all of these, one by one?
1. CC(C)CCCC(C)[C@H]1CC[C@H]2C3CC=C4C[C@@H](OC(=O)C[N+](C)(C)C)CCC4(C)[C@H]3CCC12C (some centres not stated)
2. CC(C)CCCC(C)[C@H]1CC[C@H]2C3CC=C4C[C@@H](OC(=O)CCC(=O)NCCCN(C)C)CCC4(C)[C@H]3CCC12C (some centres not stated)
3. CC(C)CCCC(C)[C@H]1CC[C@H]2C3CC=C4C[C@@H](OC(=O)C[N+](C)(C)CCO)CCC4(C)[C@H]3CCC12C (some centres not stated)
4. CC(C)CCCC(C)[C@H]1CC[C@H]2C3CC=C4C[C@@H](OC(=O)CCC(=O)NCCN(C)C)CCC4(C)[C@H]3CCC12C (some centres not stated)

2800 RLU (ug of protein)-1
8800 RLU (ug of protein)-1
31100 RLU (ug of protein)-1
75400 RLU (ug of protein)-1

Sample CC(C)CCCC(C)[C@H]1CC[C@H]2C3CC=C4C[C@@H](OC(=O)CCC(=O)OCCN(C)C)CCC4(C)[C@H]3CCC12C (some centres not stated) — what was its Transfection efficiency?
7500 RLU (ug of protein)-1

* * *

System: COS-7
testDetails: Transfection efficiency when the compound/DNA charge ratio was 9:1
Format: functional, Cercopithecidae
Exercise: state measured Transfection efficiency for each of the compounds provided.

[[record]]
compound = "CCCCCCCCCCCCCCOCC(COC(=O)CN(C)C)OCCCCCCCCCCCCCC (configuration not stated)"
resultvalue = "1700 RLU (ug of protein)-1"


Can you give me Transfection efficiency for all of these, one by one?
1. CC(C)CCCC(C)[C@H]1CC[C@H]2C3CC=C4C[C@@H](OC(=O)OCC[N+](C)(C)C)CCC4(C)[C@H]3CCC12C (some centres not stated)
2. CC(C)CCCC(C)[C@H]1CC[C@H]2C3CC=C4C[C@@H](OC(=O)CCC(=O)NCCCN(C)C)CCC4(C)[C@H]3CCC12C (some centres not stated)
3. CC(C)CCCC(C)[C@H]1CC[C@H]2C3CC=C4C[C@@H](OC(=O)C[N+](C)(C)CCO)CCC4(C)[C@H]3CCC12C (some centres not stated)
4. CC(C)CCCC(C)[C@H]1CC[C@H]2C3CC=C4C[C@@H](OC(=O)C[N+](C)(C)C)CCC4(C)[C@H]3CCC12C (some centres not stated)
5. CC(C)CCCC(C)[C@H]1CC[C@H]2C3CC=C4C[C@@H](OC(=O)OCC[N+](C)(C)CCO)CCC4(C)[C@H]3CCC12C (some centres not stated)
6. CC(C)CCCC(C)[C@H]1CC[C@H]2C3CC=C4C[C@@H](OC(=O)CCC(=O)OCCCN(C)C)CCC4(C)[C@H]3CCC12C (some centres not stated)
7. CC(C)CCCC(C)[C@H]1CC[C@H]2C3CC=C4C[C@@H](OC(=O)OCCN(C)C)CCC4(C)[C@H]3CCC12C (some centres not stated)

1. 11400 RLU (ug of protein)-1
2. 9800 RLU (ug of protein)-1
3. 29600 RLU (ug of protein)-1
4. 4300 RLU (ug of protein)-1
5. 8700 RLU (ug of protein)-1
6. 9100 RLU (ug of protein)-1
7. 24800 RLU (ug of protein)-1

Can you give me Transfection efficiency for all of these, one by one?
1. CC(C)CCCC(C)[C@H]1CC[C@H]2C3CC=C4C[C@@H](OC(=O)CN(C)C)CCC4(C)[C@H]3CCC12C (some centres not stated)
2. CC(C)CCCC(C)[C@H]1CC[C@H]2C3CC=C4C[C@@H](OC(=O)CCC(=O)NCCN(C)C)CCC4(C)[C@H]3CCC12C (some centres not stated)
3. CCCCCCCCCCCCCCOCC(COC(=O)C[N+](C)(C)C)OCCCCCCCCCCCCCC (configuration not stated)
4. CC(C)CCCC(C)[C@H]1CC[C@H]2C3CC=C4C[C@@H](OC(=O)CCC(=O)OCCN(C)C)CCC4(C)[C@H]3CCC12C (some centres not stated)

["2000 RLU (ug of protein)-1", "98100 RLU (ug of protein)-1", "17700 RLU (ug of protein)-1", "9600 RLU (ug of protein)-1"]
